# MEASURED_TARGET: CDK1/Cyclin B1 (Homo sapiens, UniProt P06493)
# Sequence (P06493 whole entry): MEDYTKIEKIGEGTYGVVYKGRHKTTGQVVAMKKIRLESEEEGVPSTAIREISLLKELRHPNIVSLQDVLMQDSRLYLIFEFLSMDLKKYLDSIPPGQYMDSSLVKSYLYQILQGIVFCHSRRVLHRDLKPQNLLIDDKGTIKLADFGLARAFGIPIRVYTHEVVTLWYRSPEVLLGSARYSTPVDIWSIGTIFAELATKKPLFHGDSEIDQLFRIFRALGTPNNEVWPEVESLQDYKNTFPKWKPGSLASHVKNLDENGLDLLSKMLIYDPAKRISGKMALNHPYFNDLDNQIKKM
# Sequence (P14635 whole entry partner): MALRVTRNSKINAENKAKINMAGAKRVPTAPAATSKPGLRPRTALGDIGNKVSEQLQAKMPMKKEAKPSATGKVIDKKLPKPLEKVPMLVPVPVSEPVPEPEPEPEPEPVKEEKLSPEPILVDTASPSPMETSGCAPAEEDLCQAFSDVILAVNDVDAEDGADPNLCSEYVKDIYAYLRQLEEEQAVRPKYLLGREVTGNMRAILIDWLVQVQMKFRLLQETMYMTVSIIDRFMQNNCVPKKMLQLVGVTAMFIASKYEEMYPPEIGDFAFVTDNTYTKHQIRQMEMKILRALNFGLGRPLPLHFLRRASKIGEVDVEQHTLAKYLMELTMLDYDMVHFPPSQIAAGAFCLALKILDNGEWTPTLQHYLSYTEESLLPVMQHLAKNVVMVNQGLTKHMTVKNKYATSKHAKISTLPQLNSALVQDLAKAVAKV
# TEST_PROTOCOL: CDK1/Cyclin B1 Biochemical Assay (TR-FRET), 0.015 mM ATP
# MEASUREMENT_CONDITIONS: 0.15 μM Rb (Ser780)-biotin substrate, pH7.0, 60 min preincubation, 120 min reaction, room temperature
MEASUREMENT_TYPE: IC50 (nM)

>  <COMPOUND>
CN1c2ccc(Nc3cc([C@@H]4CC[C@H](OC(=O)NC(C)(C)CO)C4)[nH]n3)cc2CS1(=O)=O (single isomer, unassigned) [Example 325b]

>  <MEASURED_TARGET>
CDK1/Cyclin B1 (Homo sapiens, UniProt P06493)

>  <MEASUREMENT>
71

$$$$
>  <COMPOUND>
CC(C)NC(=O)O[C@H]1CC[C@@H](c2cc(Nc3ccc4c(c3F)CN(CCCO)S4(=O)=O)n[nH]2)C1 (relative stereo)

>  <MEASURED_TARGET>
CDK1/Cyclin B1 (Homo sapiens, UniProt P06493)

>  <MEASUREMENT>
288

$$$$
>  <COMPOUND>
CC[C@H](C)NC(=O)O[C@H]1CC[C@@H](c2cc(Nc3ccc4c(c3)CS(=O)(=O)N4)n[nH]2)C1 (single isomer, unassigned) [Example 323a]

>  <MEASURED_TARGET>
CDK1/Cyclin B1 (Homo sapiens, UniProt P06493)

>  <MEASUREMENT>
30

$$$$
>  <COMPOUND>
C[C@@H](CO)NC(=O)O[C@H]1CC[C@@H](c2cc(Nc3ccc4c(c3F)CNS4(=O)=O)n[nH]2)C1 (single isomer, unassigned) [Example 328a]

>  <MEASURED_TARGET>
CDK1/Cyclin B1 (Homo sapiens, UniProt P06493)

>  <MEASUREMENT>
315

$$$$
>  <COMPOUND>
CCCNC(=O)O[C@H]1CC[C@@H](c2cc(Nc3ccc4c(c3Cl)CNS4(=O)=O)n[nH]2)C1 (single isomer, unassigned) [Example 39b]

>  <MEASURED_TARGET>
CDK1/Cyclin B1 (Homo sapiens, UniProt P06493)

>  <MEASUREMENT>
390

$$$$
>  <COMPOUND>
CC(C)NC(=O)O[C@H]1CC[C@@H](c2cc(Nc3cnc4c(c3)CN(C)S4(=O)=O)n[nH]2)C1 (relative stereo)

>  <MEASURED_TARGET>
CDK1/Cyclin B1 (Homo sapiens, UniProt P06493)

>  <MEASUREMENT>
424

$$$$

[P] CC(C)NC(=O)O[C@H]1CC[C@@H](c2cc(Nc3ccc4c(c3)CCS(=O)(=O)N4)n[nH]2)C1 (single isomer, unassigned) [Example 246b]
[Q] CC(C)NC(=O)O[C@H]1CC[C@@H](c2cc(Nc3ccc4c(c3F)CS(=O)(=O)N4CC(C)(C)O)n[nH]2)C1 (racemic)
Consider entries P and Q . Which has the numerically lower IC50? State the label of the item chosen.
P
